# PROTOCOL_NOTES: Equilibrium solubility by the shake-flask method with HPLC-UV analysis
# Type: physicochemical
# TEST_CONDITIONS: simulated intestinal fluid pH 7.4, 37 °C, shake-flask, n = 3
MEASUREMENT_NAME: [PZQ] in SIF attained in 24 hours (µg/mL)
Return type: number; implicit unit µg/mL.

[ask] Supply measured [PZQ] in SIF attained in 24 hours of O=C(C1CCCCC1)N1CC(=O)N2CCc3ccccc3C2C1.O=C(O)C(=O)O (centres unmarked) in your reply.
[reply] 229.26

[ask] Supply measured [PZQ] in SIF attained in 24 hours of O=C(C1CCCCC1)N1CC(=O)N2CCc3ccccc3C2C1.O=C(O)c1cccc(O)c1 (centres unmarked) [Co-Crystal 7, PZQ – 3-HYDROXYBENZOIC ACID (3HBA) (1:1)] in your reply.
[reply] 232.31

[ask] Supply measured [PZQ] in SIF attained in 24 hours of O=C(C1CCCCC1)N1CC(=O)N2CCc3ccccc3C2C1.O=C(O)c1ccc(O)cc1 (centres unmarked) [Co-Crystal 5, PZQ – 4-HYDROXYBENZOIC ACID (4HBA)] in your reply.
[reply] 217.86

[ask] Supply measured [PZQ] in SIF attained in 24 hours of O=C(C1CCCCC1)N1CC(=O)N2CCc3ccccc3C2C1.O=C(C1CCCCC1)N1CC(=O)N2CCc3ccccc3C2C1.O=C(O)c1cccc(O)c1 (centres unmarked) [Co-Crystal 9, PZQ – 3-HYDROXYBENZOIC ACID (3HBA) (2:1)] in your reply.
[reply] 226.47

[ask] Supply measured [PZQ] in SIF attained in 24 hours of O.O=C(C1CCCCC1)N1CC(=O)N2CCc3ccccc3C2C1.O=C(O)c1ccccc1O (centres unmarked) [Co-Crystal 6, PZQ – SALICYLIC ACID (SAL) – H2O] in your reply.
[reply] 246.81
